test system: SNB-19 CNS; experiment: NCI tumour cell line growth inhibition, 48 h; in the data active = GI50 below about 0.43 µM; inactive = the rest
Choose the fitting class; nothing outside 1 (yes) for active, 0 (no) for inactive is accepted.

Enquiry: # fetch the recorded call for O=C1NC(=O)C(c2cccc(Cl)c2)=C1Nc1ccc(O)c(Cl)c1 here
Return: 0 (no)

Enquiry: Outcome logged for COc1ccc2cc(-c3c(-c4ccncc4)nc(-c4ccc(S(C)=O)cc4)n3C)ccc2c1 (stereo not drawn) in this assay:
Return: 0 (no)

Enquiry: I would be grateful if you could indicate the recorded call for O=C(Nc1cccc(Nc2ncc(Br)c(NCCc3cnc[nH]3)n2)c1)N1CCCC1 .
Return: 0 (no)

###

Measured TGI, listed per entry.
tested on: SK-MEL-5 melanoma; experiment: NCI tumour cell line growth inhibition, 48 h

Answered cases to consult:
1) C=CCOC(=O)C1C2OC3(C(C(=O)OC)=C2C(=O)OC)c2ccccc2CCC13 (centres undefined) : > 10 µM
2) COc1cccc(N2C(=O)C3c4[nH]c5ccc(C)cc5c4C4CCC(C(C)(C)C)CC4C3C2=O)c1 (centres undefined) : > 10 µM
3) Cc1csc2nc(-c3ccc(Cl)c([N+](=O)[O-])c3)c(/C=N/N=C(N)N)n12 : 2.94 µM
4) C[C@H]1C=C2[C@@H]3CC(C)(C(=O)O)CC[C@]3(C)CC[C@]2(C)[C@]2(C)CC[C@H]3C(C)(C)[C@@H](OC(=O)c4cccc5c(=O)c6ccccc6[nH]c45)CC[C@]3(C)[C@@H]12 (some centres undefined) : > 100 µM
5) CC(NC(C)(C)C)C(=O)c1cccc(Cl)c1 (centres undefined) : > 100 µM
6) Cc1ccc(CC(C)N)cc1 (centres undefined) : > 100 µM

Enquiry: Using the record for CCCc1ccc(NCc2cc(OC)c(OC)c(OC)c2)cc1 , state its measured TGI.
Return: 32.5 µM

Enquiry: Tell me its TGI given Cc1ccc(N=Nc2c(O)c(C(=O)Nc3ccccc3)cc3ccccc23)c([N+](=O)[O-])c1 as the entry.
Return: > 100 µM

Enquiry: Look up and report measured TGI for this entry: Cc1c(C2=C(c3cn(C)c4ccccc34)C(=O)NC2=O)c2ccccc2n1C
Return: > 25 µM
